- SYSTEM TESTED: human Nav1.1 (Homo sapiens)
- Construct: host or cells: HEK293
- ASSAY INFO: Amplification of Nav1.1-derived voltage-dependent sodium current (Nav1.1 current), cell line stably expressing human Nav1.1, automated patch clamp
- Format: cell-based
- DETAILS: concentration of each compound 1 μmol/L (Test Result 6)
Recorded measurements of Nav1.1 current amplification rate (%), one per entry
PROPERTY NAME: Nav1.1 current amplification rate (%)

>>> result("CC1CC=C(c2ccc(=O)n(CC(=O)Nc3cnc4c(cnn4C)c3)n2)CC1 (racemic) [Example 348]")
"57%"
>>> result("CC1CC=C(c2ccc(=O)n(CC(=O)N3CCc4c3ccnc4C3=CCOC3)n2)CC1 (racemic) [Example 284]")
"91%"
>>> result("CC1CC=C(c2ccc(=O)n(CC(=O)N3CCc4c(CNC5CCC5)cccc43)n2)CC1 (racemic) [Example 315]")
"19%"
>>> result("CC1CC=C(c2ccc(=O)n(CC(=O)N3CCc4cc(OCC(C)(C)O)ccc43)n2)CC1 (racemic) [Example 320]")
"10%"
>>> result("O=C(Cn1nc(-c2cc(Cl)cs2)ccc1=O)Nc1ccn2ccnc2c1 [Example 467]")
"80%"
>>> result("CC1CC=C(c2ccc(=O)n(CC(=O)N3CCc4c(CNC5CCOCC5)cccc43)n2)CC1 (racemic) [Example 317]")
"41%"
>>> result("CC1CC=C(c2ccc(=O)n(CC(=O)N3CCc4c(CNCC(F)F)cccc43)n2)CC1 (racemic) [Example 312]")
"80%"
>>> result("CC1CC=C(c2ccc(=O)n(CC(=O)N3CCc4c3ccnc4C3=CCOCC3)n2)CC1 (racemic) [Example 296]")
"87%"
>>> result("CC(=O)N1CC=C(c2nccc3c2CCN3C(=O)Cn2nc(C3=CCC(C)CC3)ccc2=O)C1 (racemic) [Example 310]")
"87%"
>>> result("CC1CC=C(c2ccc(=O)n(CC(=O)Nc3ccc4nccn4c3)n2)CC1 (racemic) [Example 343]")
"44%"
>>> result("CC1CC=C(c2ccc(=O)n(CC(=O)Nc3cccc(-n4ccnc4)c3)n2)CC1 (racemic) [Example 363]")
"174%"
>>> result("CC1CC=C(c2ccc(=O)n(CC(=O)Nc3ccc4c(cnn4C)c3)n2)CC1 (racemic) [Example 336]")
"68%"
>>> result("CC1CC=C(c2ccc(=O)n(CC(=O)N3CCc4c(CN5CCCCC5)cccc43)n2)CC1 (racemic) [Example 282]")
"26%"
>>> result("CC1CC=C(c2ccc(=O)n(CC(=O)Nc3ccc4cncn4c3)n2)CC1 (racemic) [Example 344]")
"69%"
>>> result("COC1CCN(c2nccc3c2CCN3C(=O)Cn2nc(C3=CCC(C)CC3)ccc2=O)CC1 (racemic) [Example 309]")
"71%"
>>> result("CC1CC=C(c2ccc(=O)n(CC(=O)Nc3cncc(C4=CCN(C)C4)c3)n2)CC1 (racemic) [Example 367]")
"38%"
>>> result("Cc1cc(NC(=O)Cn2nc(C3=CCC(C)CC3)ccc2=O)cc(C)n1 (racemic) [Example 364]")
"25%"
>>> result("CC1CC=C(c2ccc(=O)n(CC(=O)Nc3ccc(-n4ccnc4)nc3)n2)CC1 (racemic) [Example 377]")
"134%"
>>> result("CC1CC=C(c2ccc(=O)n(CC(=O)N3CCc4c3ccnc4C3=CCN(C)C3)n2)CC1 (racemic) [Example 283]")
"15%"
>>> result("COCCNCc1cccc2c1CCN2C(=O)Cn1nc(C2=CCC(C)CC2)ccc1=O (racemic) [Example 314]")
"9%"
>>> result("CC1CC=C(c2ccc(=O)n(CC(=O)N3CCc4c3ccnc4C3=CCN(C(=O)OC(C)(C)C)C3)n2)CC1 (racemic) [Example 280]")
"10%"
>>> result("CC1CC=C(c2ccc(=O)n(CC(=O)Nc3cncc(C4=COCCC4)c3)n2)CC1 (racemic) [Example 382]")
"13%"
>>> result("Cc1cn(Cc2cccc3c2CCN3C(=O)Cn2nc(C3=CCC(C)CC3)ccc2=O)cn1 (racemic) [Example 288]")
"115%"
>>> result("CC1CC=C(c2ccc(=O)n(CC(=O)N3CCc4c3ccnc4-c3cccnc3)n2)CC1 (racemic) [Example 297]")
"151%"
>>> result("COC1CCN(Cc2cccc3c2CCN3C(=O)Cn2nc(C3=CCC(C)CC3)ccc2=O)C1 (mixture of isomers) [Example 272]")
"127%"
>>> result("CC1CC=C(c2ccc(=O)n(CC(=O)N3CCc4c(-c5cc[nH]n5)ccc(F)c43)n2)CC1 (racemic) [Example 292]")
"46%"
>>> result("COC1CCN(Cc2cccc3c2CCN3C(=O)Cn2nc(C3=CCC(C)CC3)ccc2=O)C1 (mixture of isomers) [Example 273]")
"77%"
>>> result("CC1CC=C(c2ccc(=O)n(CC(=O)Nc3cnc4nccn4c3)n2)CC1 (racemic) [Example 337]")
"52%"
>>> result("CC1CC=C(c2ccc(=O)n(CC(=O)N3CC=C(c4ccncc4)C3)n2)CC1 (racemic) [Example 387]")
"19%"
>>> result("COCCN(C)Cc1cccc2c1CCN2C(=O)Cn1nc(C2=CCC(C)CC2)ccc1=O (racemic) [Example 275]")
"46%"

The measurements presented in this section are drawn from patent US20220347175A1.
